# assayed-target: Fibroblast growth factor 10 (Homo sapiens)
# assay-summary: FGF10 binders on small-molecule microarrays, primary screen, biochemical, small-molecule microarray, 635 nm fluorescence (AID 1102)
# test-context: FGF10 binding, fluorescence 635 nm, higher = more signal
result-type: composite z-score

>>> recorded_result("COCCOC(=O)N1C(=O)[C@@]2(c3cc(C#CC4(O)CCCCCC4)ccc31)[C@H](c1ccccc1OCCO)N1[C@H](c3ccccc3)[C@H](c3ccccc3)OC(=O)[C@H]1[C@@H]2C(N)=O")
0.804
>>> recorded_result("C=CCOC(=O)[C@@H]1[C@H]2C(=O)O[C@H](c3ccccc3)[C@H](c3ccccc3)N2[C@H](c2ccc(OCCOC(=O)[C@H]3C[C@H]4C(=O)N[C@@H](CC(C)C)C(=O)N4[C@H]3c3ccc(O)cc3)cc2)[C@@]12C(=O)Nc1ccc(I)cc12")
1.4
>>> recorded_result("CCOC(=O)[C@H]1C/C=C/C[C@H](C(=O)OCC)C(=O)O[C@H]2[C@@H](OC)O[C@H](CO)[C@@H](OC(=O)CCc3ccccc3)[C@@H]2OC1=O")
-0.785
>>> recorded_result("O=C1c2ccccc2[C@](Cc2ccccc2I)(C(=O)NCc2ccccc2)[C@H](c2ccc(CO)cc2)N1C1CCCCC1")
1.37
>>> recorded_result("CCCC[C@@H]1C[C@H]1[C@@H](NC(=O)c1cccnc1)c1ccc(-c2ccccc2)cc1")
-1.19
>>> recorded_result("COCCOC(=O)N1C(=O)[C@@]2(c3cc(C#CC4(O)CCCCCC4)ccc31)[C@H](C(=O)N1CCCCCCC1)[C@H]1C(=O)O[C@H](c3ccccc3)[C@H](c3ccccc3)N1[C@@H]2c1ccc(OCCO)cc1")
1.5
>>> recorded_result("C=C[C@@H](COC(C)=O)NS(=O)(=O)c1ccc(Br)cc1")
0.172
>>> recorded_result("O=C(O)[C@H](Cc1ccccc1)n1cc(-c2ccccn2)nn1")
0.3
>>> recorded_result("CN1C(=O)C2C=CC(C(O)Cc3ccccc3)N(N(c3ccccc3)c3ccccc3)C2C1=O (configuration not stated)")
0.812
>>> recorded_result("COc1ccc([Si](C)(C)[C@@H]2[C@@H](CCO)O[C@]3(C(=O)N(Cc4cccc(N5C(=O)c6cccc7cccc5c67)c4)c4ccccc43)[C@H]2C)cc1")
0.454
>>> recorded_result("C=CCOC(=O)[C@@H]1[C@H]2C(=O)O[C@H](c3ccccc3)[C@H](c3ccccc3)N2[C@H](c2ccc(OCCOC(=O)[C@H]3C[C@H]4C(=O)N[C@@H](CCCCN(C)C)C(=O)N4[C@H]3c3cccc(OCCO)c3)cc2)[C@@]12C(=O)Nc1ccc(I)cc12")
1.02
>>> recorded_result("COc1ccc([Si](C)(C)[C@H]2[C@H](CC(=O)N3Cc4ccccc4C[C@H]3CO)O[C@@]3(C(=O)N(Cc4cccc(N5CCCCC5=O)c4)c4ccccc43)[C@@H]2C)cc1")
1.14
